Can you tell me growth inhibition for the items I'm about to list?
- experimental_details: NCI Yeast Anticancer Drug Screen. Data for the mec2-1 strain (AID 157)
- particulars: S. cerevisiae mec2-1 strain, at 5.0 µM (retest, dose inferred, filed as 0.5), stronger effect = higher value
This is part of a sample that, as a whole, favours compounds with a hit. Of some 79,000 tested, about 15% had one in any assay.
Give bare numbers, in %.

{"molecule": "CCOC(=O)c1[nH]n(-c2ccccc2)c(=O)c1/C=N/C(=S)N=Nc1c(O)[nH]c2ccccc12", "growth inhibition, %": -21}
{"molecule": "N#Cc1ccc(Oc2nc3ccccc3nc2-c2ccccc2)cc1", "growth inhibition, %": -4}
{"molecule": "CCCCCC(C)NCC(O)Cc1ccc(OCCCC)cc1 (configuration not stated)", "growth inhibition, %": 29}
{"molecule": "COc1ccc2c(c1)CCCN2CCCCCCCN1CCCCC1", "growth inhibition, %": 16}
{"molecule": "CCCCCCCCCCCCNC(=O)C[n+]1cccc(C(=O)Nc2ccccc2)c1", "growth inhibition, %": 100}
{"molecule": "NC(=S)C(=S)N/C=C/c1nc2ccccc2[nH]c1=O", "growth inhibition, %": -25}

Would you be so kind as to report growth inhibition for each listed record?
1. CC(=O)c1c2c(cc3c1CC1(Cc4cc5c(cc4C1)C(=O)CCC5)C3)CCCC2 (configuration not stated)
2. CCOC(=O)NN(C(=O)OCC)c1ccc(N=Nc2ccc(OC)cc2)n1C

Given back:
1. 23
2. -25

For every record below, what is its growth inhibition?
1. COc1cc(/C=C/C(=N\NC(=O)c2ccccc2)c2sc(Nc3ccc(Cl)c(Cl)c3)nc2C)ccc1O
2. CCc1nc2c(O)ccc(O)c2nc1C
3. CCOC1(OCC)C(C)C(c2ccccc2)C(c2ccccc2)C1C (configuration not stated)
4. O=C(O)/C=C/c1ccc(Cl)cc1Cl
5. CCS/C(SC)=C(/c1ccccc1)[P+](c1ccccc1)(c1ccccc1)c1ccccc1

Given back:
1. 29
2. -43
3. -6
4. -8
5. 99

// for each molecule below, give its growth inhibition
1. Cc1ccc(O)c(C(C)c2ccccc2)c1 (configuration not stated)
2. C/C(=N/O)c1ccc2c(c1)C(C)c1ccccc1-2 (configuration not stated)
3. O=C(NO)Nc1nc(Cl)c(Cl)nc1Cl
4. O=C(Nc1cc(-c2ccccc2)[nH]n1)c1ccccc1
5. CN(C)[C@@H]1C(=O)C(C(=O)NCNc2nc3n[nH]nc3c(=O)[nH]2)=C(O)[C@@]2(O)C(=O)C3=C(O)c4c(O)cccc4[C@@](C)(O)[C@H]3C[C@@H]12
6. CN(C)c1nc(N(C)C)nc([N+](C)(C)C)n1
7. COc1cc(/C=C2\S/C(=N/Nc3nc(-c4ccc(Br)cc4)cs3)NC2=O)cc(OC)c1OC
8. Cn1cc(-c2c3c(cc4c2OCO4)OCO3)c2ccccc21

Given back:
[-20, -53, 18, 29, -4, -3, -23, -3]

Asked: # lookup: growth inhibition of `Cn1c(=S)c2[nH]c(SCCN3CCOCC3)nc2n(C)c1=O`
Given back: 20

----------
- experimental_details: NCI Yeast Anticancer Drug Screen. Data for the sgs1 mgt1 strain (AID 161);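 further: 0% = growth of cultures given vehicle only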
- particulars: S. cerevisiae sgs1 mgt1 strain, at 50.0 µM (retest, dose inferred, filed as 5.0)
About 79,000 compounds went through this panel and 15% of them were active in at least one assay; those are over-represented in the sample as a whole. The source made the active and inactive calls. Rule as the data show it: active = growth inhibition above about 70%; inactive = the rest.
Hi there, use one of these labels in your reply, thanks! label 1 (active), label 0 (inactive)

{"compound": "COC(=O)c1cc2c(oc1=O)-c1ccccc1N(C=O)C2", "category": "label 0"}
{"compound": "Cc1ccc(Nc2nc(C)c(C(=O)C/C(=N\\NC(N)=S)C(=O)Nc3ccc(Cl)cc3C)s2)cc1", "category": "label 0"}
{"compound": "COc1ccc(CN2CCCN(Cc3ccc(OC)cc3OC)C2c2cc(Br)ccc2O)c(OC)c1", "category": "label 1"}
{"compound": "CCCCCCCCCCN(CCCCCCCCCC)C(=O)COc1c2cc(C(C)(C)C)cc1Cc1cc(C(C)(C)C)cc(c1OCC(=O)N(CCCCCCCCCC)CCCCCCCCCC)Cc1cc(C(C)(C)C)cc(c1OCC(=O)N(CCCCCCCCCC)CCCCCCCCCC)Cc1cc(C(C)(C)C)cc(c1OCC(=O)N(CCCCCCCCCC)CCCCCCCCCC)C2", "category": "label 1"}

Asked: # lookup: test call for `O=C1c2ccccc2C(=O)c2c(NCCNCCO)ccc(O)c21`
Given back: label 1

Asked: Per the records of this test, what outcome belongs to CCC1CCC2C3CC=C4CC(OC(C)=O)C(N)CC4(C)C3CCC12C (stereo not drawn) ?
Given back: label 1

Asked: Recorded call for `COc1ccc(CCNC(=S)/N=C\C(C(=O)c2ccccc2)=C(\O)c2ccccc2)cc1OC` ?
Given back: label 1

Asked: # fetch the recorded call for `Clc1nc(Cl)c(Cc2ccccc2)c(Cl)n1` here
Given back: label 1

----------
- experimental_details: NCI Yeast Anticancer Drug Screen. Data for the sgs1 mgt1 strain (AID 161);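 further: 0% = growth of cultures given vehicle only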
- particulars: S. cerevisiae sgs1 mgt1 strain, at 50.0 µM (retest, dose inferred, filed as 5.0)
This is part of a sample that, as a whole, favours compounds with a hit. Of some 79,000 tested, about 15% had one in any assay. Active and inactive are the calls of the source. No stated cut-off is given here; in the data, active means growth inhibition above about 70%; inactive means the rest.
Answer with one of the outcomes T for active, F for inactive

{"molecule": "Nc1c(/C=C/c2cc3ccc(C4=NCCN4)cc3[nH]2)[nH]c2cc(C3=NCCN3)ccc12", "category": "T"}
{"molecule": "COc1c(O)cc2c(c1O)C(=O)C1=C(CCCC1)C2=O", "category": "T"}
{"molecule": "O=C(N/N=C/c1ccccc1[O-])c1ccccc1O.O=C(N/N=C/c1ccccc1[O-])c1ccccc1O.[Mn+2]", "category": "T"}

Consider the record given below.
Asked: Can you look up the reported call for CCC(C)CNCCCCCNc1cc(OC)cc2cccnc12 (stereo not drawn) for me?
Given back: T

----------
- experimental_details: NCI Yeast Anticancer Drug Screen. Data for the sgs1 mgt1 strain (AID 161);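 further: 0% = growth of cultures given vehicle only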
- particulars: S. cerevisiae sgs1 mgt1 strain, at 5.0 µM (retest, dose inferred, filed as 0.5)
The panel holds about 79,000 compounds, 15% with a hit somewhere; the sample as a whole holds those more often. Active and inactive are the calls of the source. Rule as the data show it: active = growth inhibition above about 70%; inactive = the rest.
Reply using exactly one outcome from TRUE (active), FALSE (inactive)

Recorded results for 3 molecules are shown here.
{"molecule": "CCCN1CCN(c2ccc([N+](=O)[O-])c3no[n+]([O-])c23)CC1", "category": "TRUE"}
{"molecule": "O=C(OCc1ccccc1)N1N=NC2C1C1CC(OCc3ccccc3)(OCc3ccccc3)C2O1 (configuration not stated)", "category": "FALSE"}
{"molecule": "OCCN1CCN(CCCN2c3cc(Cl)ccc3Sc3ccsc32)CC1", "category": "FALSE"}

Asked: Which result was noted for this molecule in the test: C[C@]12CC[C@H](O)CC1=CC[C@@H]1C2CC[C@]2(C)C(=O)N(N)C(=O)CC12 (some centres not stated)
Given back: FALSE

Asked: Which outcome did this test record for the molecule `O=[N+]([O-])c1ccc(O)c(-c2ccccc2)c1` ?
Given back: FALSE

----------
- experimental_details: NCI Yeast Anticancer Drug Screen. Data for the mlh1 rad18 strain (AID 175)
- particulars: S. cerevisiae mlh1 rad18 strain growth inhibition; at 5.0 µM (retest, dose inferred, filed as 0.5); stronger effect = higher value
This is part of a sample that, as a whole, favours compounds with a hit. Of some 79,000 tested, about 15% had one in any assay.
Threshold check on growth inhibition: at or above 20% gives MET, strictly below gives NOT MET.

A selection of reference data follows.
{"structure_string": "OCCSCc1cc(Cl)cc(Cl)c1O", "category": "NOT MET"}
{"structure_string": "CC(C)(S[S-])S[S-].[Ti].[c-]1[c-][c-][cH-][c-]1.[c-]1[c-][c-][cH-][c-]1", "category": "MET"}
{"structure_string": "Cc1nc2c(nc1C)C(=O)C1=C(C2=O)C2C=CC1CC2", "category": "NOT MET"}
{"structure_string": "C=CC(=O)N1C/C(=C\\c2ccc(F)cc2)C(=O)/C(=C/c2ccc(F)cc2)C1", "category": "NOT MET"}
{"structure_string": "Cc1c(Cl)cccc1NC(=O)/C(Cl)=C(\\Cl)C(=O)O", "category": "NOT MET"}

Asked: Would you say `Nc1n[nH]c(=O)c2cccnc12` shows growth inhibition at minimum 20%?
Given back: NOT MET

----------
- experimental_details: NCI Yeast Anticancer Drug Screen. Data for the cln2 rad14 strain (AID 165);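 further: 0% = growth equal to vehicle treated cultures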
- particulars: S. cerevisiae cln2 rad14 strain, at 50.0 µM
This is part of a sample that, as a whole, favours compounds with a hit. Of some 79,000 tested, about 15% had one in any assay. Activity calls are given as the source filed them. No stated cut-off is given here; in the data, active means growth inhibition above about 70%; inactive means the rest.
Response enum: yes = active, no = inactive

Worked cases, answers included:
{"compound": "N#[N+]c1c([O-])ccc2nc3ccccc3nc12", "category": "no"}
{"compound": "O=C(CSc1nnc(-c2ccc(N=Cc3ccc(Cl)cc3)cc2)o1)Nc1ccc(Cl)cc1Cl", "category": "yes"}
{"compound": "CC(C)(C)c1cc(Cl)c(O)c(Cc2cc(C(C)(C)C)cc(Cl)c2O)c1", "category": "yes"}

Asked: GET /call?item= `COc1cccc(/C=C(\NC(=O)c2ccccc2)c2nc3ccccc3s2)c1` returns the recorded outcome of this test.
Given back: yes

Asked: Assay outcome for CC1CCCCC12C(C#N)(C#N)C2(C#N)C#N (stereo unspecified) : what was it?
Given back: yes

Asked: Answer briefly: the call reported for `COc1ccccc1CN1CCCN(Cc2ccccc2OC)C1c1cc(Cl)cc(Cl)c1O` in this assay.
Given back: no

Asked: Dear all, I need the recorded test outcome for `C/C(=N\NC(=S)N1CCN(c2cnccn2)CC1)c1ccccn1` , thank you.
Given back: yes

Asked: Assay outcome for COC(=O)C(Sc1ccc(Cl)cc1)C1SC(=S)N(C)C1=O (stereo unspecified) : what was it?
Given back: no

Asked: Fill in: this test's call for O=C(NNc1ccccc1)C(O)C(=O)C(O)C(O)C(O)CO (stereo unspecified) is ___
Given back: no

Asked: How was `CC(=O)c1cc(I)c(O)c2ncccc12` classified in this test?
Given back: yes

Asked: Outcome logged for C=C1CC(COc2ccc3c(C)cc(=O)oc3c2)(c2ccccc2)OC1=O (stereo unspecified) in this assay:
Given back: no
